Tested on: HepG2
assay comment: cell viability relative to DMSO; higher = less toxic
experimental context: 72 h; 10000 nM
Catalogue of cell viability readings, one per entry.
State the answer as a number, implicitly in %.

# smiles, cell viability [%]
records = [
    ("COc1cc2ncnc(Nc3cccc(Cl)c3)c2cc1OC", 67.3),
]

Task item: Tell me the measured cell viability of C[C@@H]1CC[C@@]2(OC1)O[C@H]1C[C@H]3[C@@H]4CC=C5C[C@@H](O[C@@H]6O[C@H](CO)[C@@H](O[C@@H]7O[C@@H](C)[C@H](O)[C@@H](O)[C@H]7O)[C@H](O)[C@H]6O[C@@H]6O[C@@H](C)[C@H](O)[C@@H](O)[C@H]6O)CC[C@]5(C)[C@H]4CC[C@]3(C)[C@H]1[C@@H]2C , please.
Reply: -0.2

Task item: What cell viability value was documented for this compound, CCCCNc1ncc2c(-c3ccc(CN4CCN(C)CC4)cc3)cn([C@H]3CC[C@H](O)CC3)c2n1 ?
Reply: 5.2

Task item: Which value of cell viability has been reported for COC(F)(F)C(Cl)Cl in the records?
Reply: 109

Task item: Which cell viability value is on record for O=C1OC(c2ccc(O)cc2)(c2ccc(O)cc2)c2ccccc21 ?
Reply: 119

Task item: Data request, read-out cell viability, for OC[C@H]1O[C@@H](n2cnc3c(N[C@H]4CCC[C@@H]4O)ncnc32)[C@H](O)[C@@H]1O
Reply: 94

###

cell viability overview
System: Calu-3
assay comment: cell viability relative to DMSO; higher = less toxic
experimental context: 72 h; 10000 nM
Answer shape: numeric part, then the unit.

# compound, result
data = [
    ("CC[C@@]1(O)C(=O)OCc2c1cc1n(c2=O)Cc2cc3c(CN(C)C)c(O)ccc3nc2-1 [topotecan]", "20.1%"),
    ("O=C(Oc1ccc([N+](=O)[O-])cc1)N1CCN(Cc2cccc(Oc3ccccc3)c2)CC1 [JZL-195]", "93.5%"),
    ("COc1ccc2[nH]c(I)c(CCNC(C)=O)c2c1 [2-iodomelatonin]", "94.8%"),
    ("CCC1(C)CC(=O)NC(=O)C1 [bemegride]", "98.1%"),
    ("CCN(CC)C(=O)/C(C#N)=C/c1cc(O)c(O)c([N+](=O)[O-])c1 [entacapone]", "101%"),
]

Task item: Field request: cell viability | item: O=C(/C=C/c1ccc(O)c(O)c1)OCCc1ccccc1 [caffeic-acid-phenethyl-ester]
Reply: 90.3%

Task item: Give the measured cell viability of COc1ccc2cc(CCC(C)=O)ccc2c1 [nabumetone] .
Reply: 95.4%

Task item: Look up cell viability: CNC(=O)Oc1ccccc1OC(C)C [propoxur]
Reply: 104%

Task item: Which cell viability is reported for this compound? O=C(O)CCCO [SODIUM OXYBATE]
Reply: 112%

###

Test system: A549-ACE2
assay comment: drug-induced phospholipidosis relative to tamoxifen; higher = more phospholipidosis
experimental context: 0.3 µM; 72 h
A collection of compounds and their measured drug-induced phospholipidosis
Field: value (include unit after the number)

# smiles, drug-induced phospholipidosis
records = [
    ("NC1(c2ccc(-c3nc4ccn5c(=O)[nH]nc5c4cc3-c3ccccc3)cc2)CCC1", "0.889%"),
]

Task item: Form field: reported drug-induced phospholipidosis of CC(C)n1nc(C#Cc2ccccc2)c2c(N)ncnc21
Reply: 6.41%

Task item: Reported drug-induced phospholipidosis, compound CC(=O)[O-].CC(=O)[O-].N.NC1CCCCC1.[Cl-].[Cl-].[Pt+4] : ____
Reply: 2.49%

Task item: Report drug-induced phospholipidosis for CCN(CC)CCO[C@H]1CC[C@@]2(C)C(=CC[C@@H]3[C@@H]2CC[C@]2(C)C(=O)CC[C@@H]32)C1 please.
Reply: 6.02%

Task item: Query (compound): CC(C)(C)c1ccc(C(=O)CCCN2CCC(OC(c3ccccc3)c3ccccc3)CC2)cc1 ; field requested: drug-induced phospholipidosis
Reply: 5.22%
